assay: Mycobacterium tuberculosis growth inhibition, primary screen (AID 1259343); conditions: at 10 µM, hits give high values
The campaign covered roughly 6,200 compounds. About 2,900 (47%) were called active. So high a share suggests a set chosen from earlier hits. Some of the results follow.
Label scheme for inhibition: lower than 40% is -1, 40% and above is 1.

// inclusive: inhibition at least 40%? input: `COc1ccccc1N(C)CC(=O)NC12CC3CC(CC(C3)C1)C2`
-1

// inclusive: inhibition at least 40%? input: `NC(=O)c1ccc(Cn2nc(-c3cccs3)oc2=O)cc1`
-1

// inclusive: inhibition at least 40%? input: `CN(Cc1ccc2c(c1)OCO2)c1ccc(C(=O)NC2CC2)cn1`
-1

// inclusive: inhibition at least 40%? input: `O=S(=O)(c1cccc(Br)c1)N1CCCN(c2ncc(C(F)(F)F)cc2Cl)CC1`
1

// inclusive: inhibition at least 40%? input: `O=[N+]([O-])c1ccc2[nH]c(O)c(N=Nc3cccc(C(F)(F)F)c3)c2c1`
-1

// inclusive: inhibition at least 40%? input: `Cc1cc2cc(NC(=O)c3ccc(CN4CC[C@H](O)C4)cc3)ccc2o1`
1

// inclusive: inhibition at least 40%? input: `O=S(=O)(NCc1ccc2c(c1)OCO2)c1ccc(F)c(C(F)(F)F)c1`
-1

// inclusive: inhibition at least 40%? input: `O=C(CCOc1ccccc1)NC12CC3CC(CC(C3)C1)C2`
1

// inclusive: inhibition at least 40%? input: `CCOc1ccc(OCCCOc2ccc(Cl)c(C)c2)cc1`
1

// inclusive: inhibition at least 40%? input: `CN(Cc1cccc(Cl)c1)C(=O)NCc1cc(F)cc(F)c1`
1

// inclusive: inhibition at least 40%? input: `O=[N+]([O-])c1ccc2nc(C(F)(F)F)[nH]c2c1`
1

// inclusive: inhibition at least 40%? input: `CN(Cc1ccc(F)cc1F)C(=O)NCc1cccc(C(F)(F)F)c1`
1

// inclusive: inhibition at least 40%? input: `C=CCSc1nnc(COc2ccccc2)o1`
1

// inclusive: inhibition at least 40%? input: `Cc1cccc(N2CCN(C(=O)c3cc(COc4ccc(F)c(F)c4)on3)CC2)n1`
1

// inclusive: inhibition at least 40%? input: `O=C(CCl)N1CCN(c2ncc(C(F)(F)F)cc2Cl)CC1`
1

====

Consider the following molecules; for each one, report its inhibition.
assay: Mycobacterium tuberculosis growth inhibition, primary screen (AID 1259343); settings: at 10 µM, hits give high values
Screen size: about 6,200 compounds; about 2,900 (47%) were called active. The set was probably picked from earlier hits. This is one part of the list.
I only need the number, in %, no unit after it.

Look at this molecule and give its reported inhibition. CN(Cc1ccc(O)cc1)C(=O)C1=NOC(c2ccccc2)C1 (stereo not given)
66.5

Look at this molecule and give its reported inhibition. `O=[N+]([O-])c1ccccc1NCCNc1cccc2ccccc12`
26

Look at this molecule and give its reported inhibition. `N#CC1(NC(=O)c2cnc(-c3ccc4c(c3)OCO4)s2)CCCC1`
86.4

Look at this molecule and give its reported inhibition. `Oc1ccc(Br)cc1-c1nc2cnccn2c1NC1CCCC1`
37.9

Look at this molecule and give its reported inhibition. `COc1ccc(CC2CCN(C(=O)Nc3cccc(F)c3)CC2)cc1`
74.8

Look at this molecule and give its reported inhibition. `O=c1[nH]c(=O)n(CCC2=CCCCC2)c(O)c1C=C1C=CC=N1`
89.4

Look at this molecule and give its reported inhibition. `Cc1cc(OCC(=O)NCc2ccc(-c3ccc(Br)cc3)o2)no1`
56.9

Look at this molecule and give its reported inhibition. `Cc1cc(NC(=O)Cn2cnc3c(nnn3-c3cccc(F)c3)c2=O)no1`
87.4

Look at this molecule and give its reported inhibition. `CS(=O)(=O)Nc1cc(Cl)ccc1Sc1ccc(F)cc1`
76.2

Look at this molecule and give its reported inhibition. `O=c1[nH]c(NCCO)nc2c1C1(CCCC1)Cc1ccccc1-2`
3.77

Look at this molecule and give its reported inhibition. `c1ccc(-c2cnnc(N3CCCCCCC3)n2)cc1`
48.8

Look at this molecule and give its reported inhibition. `Oc1ccc(-c2csc(Cc3ccccc3)n2)cc1O`
30.3

Look at this molecule and give its reported inhibition. `c1ccc(-c2nnc(NC3CCCCC3)s2)cc1`
28.9

Look at this molecule and give its reported inhibition. COc1ccccc1CC(=O)NC1CCSc2ccccc21 (stereo not given)
-22.7

Look at this molecule and give its reported inhibition. `C=CCn1c(SCCCC)nc(O)cc1=O`
33.7

Look at this molecule and give its reported inhibition. `Cc1ccc(Cl)c(OCCCOc2cccc3cccnc23)c1`
71.6

Look at this molecule and give its reported inhibition. `C=CCN(C(=O)c1ccc(-c2ccc3c(c2)OCCO3)s1)C1CCCCC1`
45.7

Look at this molecule and give its reported inhibition. `N#CC1=C(NC(=O)c2ccc(COc3ccc(Cl)cc3)cc2)CCC1`
82.1

Look at this molecule and give its reported inhibition. `CCCCCCCCCCCCCCCCCCN(C)C`
98.2

Look at this molecule and give its reported inhibition. `c1csc(-c2noc(CSc3nc4ccccc4o3)n2)c1`
100

Look at this molecule and give its reported inhibition. `O=C(Nc1nc2c(s1)CCN(Cc1ccccc1)C2)c1cccc(F)c1`
21.5

Look at this molecule and give its reported inhibition. `Clc1cccc(Cl)c1OCCOc1cccc2cccnc12`
94.7

Look at this molecule and give its reported inhibition. `O=C(O)CCN(Cc1ccco1)c1nc(-c2cccc(Br)c2)nc2ccccc12`
2.99

Look at this molecule and give its reported inhibition. `Cc1cc(=O)[nH]c(-n2nc(C)cc2NC(=O)c2cccc([N+](=O)[O-])c2C)n1`
100

Look at this molecule and give its reported inhibition. `Cc1ccc(Cc2nc(CSCCc3ccccc3)cs2)cc1`
63.4

Look at this molecule and give its reported inhibition. `c1ccc(N2CCN(c3ccccn3)CC2)cc1`
61.2

Look at this molecule and give its reported inhibition. NC(=O)C1CN(C2CCCCc3ccccc32)CCO1 (stereo not given)
49.4

Look at this molecule and give its reported inhibition. NC(=O)C1CCN(c2nc3cc(C(F)(F)F)ccc3s2)C1 (stereo not given)
34.5

Look at this molecule and give its reported inhibition. `Cc1cccc2c(=O)n(CC(=O)NCCc3cccc(F)c3)cnc12`
25.4

Look at this molecule and give its reported inhibition. `CCOC(=O)c1ccc(NC(=O)N2CCc3nc(Cc4ccccc4OC)nc(N4CCOCC4)c3C2)cc1`
61.8

Look at this molecule and give its reported inhibition. `O=C(Nc1ccc(F)cc1F)N1CCC(Cc2ccc(-n3cccc3)cc2)CC1`
51

Look at this molecule and give its reported inhibition. CCc1cnc(C)nc1N1CCCC(C(=O)c2ccc(C(F)(F)F)cc2)C1 (stereo not given)
51.3

Look at this molecule and give its reported inhibition. COc1ccc(OC)c2c1CN(C1CCCc3ccccc31)CC2O (stereo not given)
95.8

Look at this molecule and give its reported inhibition. `CNC(=O)COc1ccc(-c2cccc(-n3cccn3)c2)cc1`
54.7

Look at this molecule and give its reported inhibition. COc1ccc2c(c1)CCC1C2CC[C@@]2(C)C1CC[C@@H]2O (stereo not given in full)
46
